Value source: paper PMC5796108

Assay: Pharmacokinetics of syringin and eleutheroside E in mice's serum after oral AS extract (HPLC, PKsolver)
Assay type: in vivo, Kun-Ming mice
Conditions: male, Kun-Ming, mouse, po, 235.7 mg/kg, Normal-AS-Treatment, oral AS extract 235.7 mg/kg, read-out: MRT(0→∞)
endpoint_name: MRT inf
The reply must contain the numeric value and, after it, the unit.

Exam item: Record request: MRT inf value, item COc1cc(/C=C/CO)cc(OC)c1O[C@@H]1O[C@H](CO)[C@@H](O)[C@H](O)[C@H]1O [Syringin]
Marked response: 4.58 h

* * *

Experiment: Pharmacokinetics of syringin and eleutheroside E in mice's serum after oral AS extract (HPLC, PKsolver)
Type: in vivo, Kun-Ming mice
Conditions: male, Kun-Ming, mouse, Normal-AS-Treatment, oral AS extract 235.7 mg/kg, read-out: Tmax
endpoint_name: Tmax
The reply must contain the numeric value and, after it, the unit.

Exam item: Record request: Tmax value, item COc1cc(/C=C/CO)cc(OC)c1O[C@@H]1O[C@H](CO)[C@@H](O)[C@H](O)[C@H]1O
Marked response: 30 min
